Target: Bradykinin-1 receptor (Homo sapiens (Human), UniProt P46663)
Sequence (P46663 whole entry): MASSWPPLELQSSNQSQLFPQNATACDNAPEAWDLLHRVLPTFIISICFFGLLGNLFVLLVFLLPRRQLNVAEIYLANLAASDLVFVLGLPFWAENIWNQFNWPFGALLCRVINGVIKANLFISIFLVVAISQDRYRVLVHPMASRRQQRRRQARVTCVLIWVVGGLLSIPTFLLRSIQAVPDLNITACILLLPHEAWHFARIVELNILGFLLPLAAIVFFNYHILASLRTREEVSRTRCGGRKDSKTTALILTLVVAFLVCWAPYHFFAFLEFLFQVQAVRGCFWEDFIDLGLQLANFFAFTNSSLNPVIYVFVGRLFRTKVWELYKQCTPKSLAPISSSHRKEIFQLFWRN
Assay: Calcium Mobilization Assay
Conditions: GeneBLAzer Bradykinin (B1)-NFAT-bla CHO-K1 cells; antagonist activity, FLIPR; read-out: Ca mobilization IC50
pIC50: −log10 of the molar value.
ASSAY_ENDPOINT: pIC50

- MOL_SMILES: "C[C@@H](NC(=O)C1(NC(=O)c2cncnc2)COC1)c1ncc(-c2cc(Cl)cc(Cl)c2OCC(F)F)cc1F"
  pIC50: 9.10
- MOL_SMILES: "Cc1nc(-c2c(F)cc(Cl)cc2-c2cnc([C@@H](C)NC(=O)C3(NC(=O)c4ccnnc4)COC3)c(F)c2)no1"
  pIC50: 9.40
- MOL_SMILES: "Cc1nc(-c2c(F)cc(Cl)cc2-c2cnc([C@@H](C)NC(=O)C3(NC(=O)c4snnc4C)COC3)c(F)c2)no1"
  pIC50: 9.40
- MOL_SMILES: "Cc1cc(C(=O)NC2(C(=O)N[C@H](C)c3ccc(-c4cc(Cl)cc(F)c4-c4nnn(C)n4)cc3F)COC2)on1"
  pIC50: 10.00
- MOL_SMILES: "Cc1nc(-c2c(F)cc(Cl)cc2-c2cnc([C@@H](C)NC(=O)C3(NC(=O)c4nccn4C)COC3)c(F)c2)no1"
  pIC50: 6.31
- MOL_SMILES: "Cc1nc(-c2c(F)cc(Cl)cc2-c2cnc([C@@H](C)NC(=O)C3(NC(=O)C(F)(F)F)COC3)c(F)c2)no1"
  pIC50: 8.92
- MOL_SMILES: "Cc1nc(-c2c(F)cc(Cl)cc2-c2cnc([C@@H](C)NC(=O)C3(NC(=O)c4cncnc4)COC3)c(F)c2)no1"
  pIC50: 10.00
- MOL_SMILES: "Cc1nc(-c2c(F)cc(Cl)cc2-c2cnc([C@@H](C)NC(=O)C3(NC(=O)c4cccnn4)COC3)c(F)c2)no1"
  pIC50: 8.03

I. COC(=O)c1c(Cl)cccc1-c1ccc([C@@H](C)NC(=O)C2(NC(=O)c3cncnc3)COC2)c(F)c1
II. COc1ncc(C(=O)NC2(C(=O)N[C@H](C)c3ncc(-c4cc(Cl)cc(F)c4-c4nnn(C)n4)cc3F)COC2)cn1
III. C[C@@H](NC(=O)C1(NC(=O)c2ccno2)COC1)c1ncc(-c2cc(Cl)cc(Cl)c2OCC(F)F)cc1F
[in] List these items ordered by pIC50, big to small. Hello, could you send the labels back in the order asked? Thank you.
[out] I, II, III

====

Biological target: Bradykinin-1 receptor (Homo sapiens (Human), UniProt P46663)
ASSAY_ENDPOINT: Ki (nM)

Examples from the recorded data:
- MOLECULE: "COC(=O)c1c(Cl)cccc1-c1ccc([C@@H](C)NC(=O)C2(NC(=O)c3ccno3)COC2)c(F)c1 [Example 12]"
  UNIT_OF_MEASUREMENT: "nM"
  ENDPOINT_VALUE: 0.8
- MOLECULE: "C[C@@H](NC(=O)C1(NC(=O)c2ccno2)COC1)c1ccc(-c2cc(Cl)cc(Cl)c2OCC(F)F)cc1F [Example 32]"
  UNIT_OF_MEASUREMENT: "nM"
  ENDPOINT_VALUE: 2.3

a. COc1cc(C(=O)NC2(C(=O)N[C@H](C)c3ccc(-c4cc(Cl)cc(F)c4-c4nnn(C)n4)cc3F)COC2)on1 [Example 43]
b. Cc1nc(-c2c(F)cc(Cl)cc2-c2cnc([C@@H](C)NC(=O)C3(NC(=O)c4nnc(C)o4)COC3)c(F)c2)no1 [Example 19]
[in] For the pair a and b , which entry has the numerically smaller recorded Ki? Refer to your chosen entry by its label in the reply.
[out] a
(a: 1.4 nM, b: 5.1 nM)

a. Cc1nnsc1C(=O)NC1(C(=O)N[C@H](C)c2ncc(-c3cc(Cl)cc(Cl)c3OCC(F)F)cc2F)COC1 [Example 41]
b. Cc1cc(C(=O)NC2(C(=O)N[C@H](C)c3ncc(-c4cc(Cl)cc(F)c4-c4nnn(C)n4)cc3F)COC2)on1 [Example 20]
[in] Thinking about recorded Ki values, which is higher, a or b ? Refer to your chosen entry by its label in the reply.
[out] a

A. Cc1nc(-c2c(F)cc(Cl)cc2-c2cnc([C@@H](C)NC(=O)C3(NC(=O)c4cccnn4)COC3)c(F)c2)no1 [Example 29]
B. Cc1nc(-c2c(F)cc(Cl)cc2-c2cnc([C@@H](C)NC(=O)C3(NC(=O)c4cn(C)cn4)COC3)c(F)c2)no1 [Example 27]
[in] Thinking about recorded Ki values, which is higher, A or B ? Refer to your chosen entry by its label in the reply.
[out] B

====

Target: Bradykinin-1 receptor (Homo sapiens (Human), UniProt P46663)
Assay: Calcium Mobilization Assay
Conditions: GeneBLAzer Bradykinin (B1)-NFAT-bla CHO-K1 cells; antagonist activity, FLIPR; read-out: Ca mobilization IC50
ASSAY_ENDPOINT: IC50 (nM)

- MOLECULE: "Cc1nc(-c2c(F)cc(Cl)cc2-c2cnc([C@@H](C)NC(=O)C3(NC(=O)c4cncc(N)c4)COC3)c(F)c2)no1 [Example 28]"
  IC50, nM: 0.1

1. COc1cc(C(=O)NC2(C(=O)N[C@H](C)c3ccc(-c4cc(Cl)cc(F)c4-c4nnn(C)n4)cc3F)COC2)on1 [Example 43]
2. COC(=O)c1c(Cl)cccc1-c1ccc([C@@H](C)NC(=O)C2(NC(=O)CC(F)(F)F)COC2)c(F)c1 [Example 8]
3. Cc1nc(-c2c(F)cc(Cl)cc2-c2cnc([C@@H](C)NC(=O)C3(NC(=O)c4cn(C)cn4)COC3)c(F)c2)no1 [Example 27]
[in] List these items ordered by IC50, big to small. Hello, could you send the labels back in the order asked? Thank you.
[out] 3, 2, 1
(3: 107 nM, 2: 0.4 nM, 1: 0.1 nM)

====

Target: Bradykinin-1 receptor (Homo sapiens (Human), UniProt P46663)
Assay: Calcium Mobilization Assay
Conditions: GeneBLAzer Bradykinin (B1)-NFAT-bla CHO-K1 cells; antagonist activity, FLIPR; read-out: Ca mobilization IC50
pIC50: −log10 of the molar value.
ASSAY_ENDPOINT: pIC50

Examples from the recorded data:
- MOL_SMILES: "COC(=O)c1c(Cl)cccc1-c1ccc([C@@H](C)NC(=O)C2(NC(=O)C(F)(F)F)COC2)c(F)c1"
  ASSAY_ENDPOINT: "pIC50"
  ENDPOINT_VALUE: 8.66
- MOL_SMILES: "COc1cc(C(=O)NC2(C(=O)N[C@H](C)c3ncc(-c4cc(Cl)cc(Cl)c4OCC(F)F)cc3F)COC2)on1"
  ASSAY_ENDPOINT: "pIC50"
  ENDPOINT_VALUE: 8.96
- MOL_SMILES: "Cc1nc(-c2c(F)cc(Cl)cc2-c2cnc([C@@H](C)NC(=O)C3(NC(=O)c4nnc(C)o4)COC3)c(F)c2)no1"
  ASSAY_ENDPOINT: "pIC50"
  ENDPOINT_VALUE: 8.92
- MOL_SMILES: "Cc1cc(C(=O)NC2(C(=O)N[C@H](C)c3ncc(-c4cc(Cl)cc(F)c4-c4nnn(C)n4)cc3F)COC2)on1"
  ASSAY_ENDPOINT: "pIC50"
  ENDPOINT_VALUE: 9.40

I. Cc1cc(C(=O)NC2(C(=O)N[C@H](C)c3ncc(-c4cc(Cl)cc(F)c4-c4noc(C)n4)cc3F)COC2)on1
II. C[C@@H](NC(=O)C1(NC(=O)C(F)(F)F)COC1)c1ccc(-c2cc(Cl)cc(F)c2-c2nnn(C)n2)cc1F
[in] For the pair I and II , which entry has the numerically smaller recorded pIC50? Refer to your chosen entry by its label in the reply.
[out] II
(II: 9.30, I: 9.70)

====

Molecular target: Bradykinin-1 receptor (Homo sapiens (Human))
Assay: Calcium Mobilization Assay
Details: GeneBLAzer Bradykinin (B1)-NFAT-bla CHO-K1 cells; antagonist activity, FLIPR; read-out: Ca mobilization IC50
pIC50: −log10 of the molar value.
ASSAY_ENDPOINT: pIC50

- MOL_SMILES: "Cc1cc(C(=O)NC2(C(=O)N[C@H](C)c3ccc(-c4cc(Cl)cc(F)c4-c4noc(C)n4)cc3F)COC2)on1"
  pIC50: 10.00

P. COc1ncc(C(=O)NC2(C(=O)N[C@H](C)c3ncc(-c4cc(Cl)cc(Cl)c4OCC(F)F)cc3F)COC2)cn1
Q. Cc1nnc(C(=O)NC2(C(=O)N[C@H](C)c3ncc(-c4cc(Cl)cc(Cl)c4OCC(F)F)cc3F)COC2)o1
[in] For the pair P and Q , which entry has the numerically smaller recorded pIC50? Refer to your chosen entry by its label in the reply.
[out] Q
